Entries and their percent blocking
Molecular target: BR P.1 variant RBD (R319-F541 with K417T, E484K, N501Y), C-terminal 6-His (SARS-CoV-2, UniProt P0DTC2 319-541)
Experiment: flow cytometry, blocking of binding to hACE-2 cells

binder: 1035423 (antibody, V domains shown) VH: EVKLEESGGGLVQPGGSMKLSCTASGFTFSDAWMDWVRQSPEKGLEWVAEIRNKANNHATYYAESVKGRFTISRDDSKSSVYLQMNSLRAEDTGIYYCILFITYAMDYWGQGTSVTVSS VL: DIVLTQSQKFMSTSVGDRVSITCKASQNVRTAVAWYQQKPGQSPKALIYLASNRHTGVPDRFTGSGSGTDFTLTISNVQSEDLADYFCLQHWNYPLTFGSGTKLELK
value.unit: %
percent blocking: 22
--
binder: 1035414 (antibody, V domains shown) VH: QVQLKQSGAELVRPGASVKLSCKTSGYIFTSYWIHWVKQRSGQGLEWIARIYPGTGNTYYNEKFKGKATLTADKSSTTAYMQLSSLKSEDSAVYFCARGEDNLYYYAMDYWGQGTSVTVSS VL: NIVLTQSPASLAVSLGQRATISCRASESVDSYGTSFMHWYQQKPGQPPKLLIYLASNLESGVPASFSGSGSRTDFTLTIDPVEADDAATYYCQQNNEDPWTFGGGTKLEIK
value.unit: %
percent blocking: 0.4
--
binder: 1035240 (antibody, V domains shown) VH: QVQLQQSGAELARPGASVKMSCKASGYTFTTYTMHWVKQRPGQGLEWIGYINPSSGYTNYNQKFKDKATLTADTSSSTAYMQLSSLTSEDSAVYYCARRNPLYAMDYWGQGTSVTVSS VL: DIKMTQSPSSMYASLGERVTITCKASQDINSYLNWFQQKPGKSPKTLIYRANRLVDGVPSRFSGSGSGQDYSLTISSLEYEDMGIYYCLQYDEFPYTFGGGTKLEIK
value.unit: %
percent blocking: 0
--
binder: 1035211 (antibody, V domains shown) VH: QVQLQQSGAELARPGASVKMSCKASGYTFTNYTMHWVKQRPGQGLEWIGYINPSSGYTNYNQKFKDKATLTADKSSSTAYMQLSSLTSEDSAVYYCARRNPLYAMDYWGQGTSVTVSS VL: DIKMTQSPSSMYASLGERVTITCKASQDINSYLNWFQQKPGKSPKTLIYRANRLVDGVPSRFSGSGSGQDYSLTISSLEFEDMGIYYCLQYDEFPYTFGGGTKLEIK
value.unit: %
percent blocking: 0
--
binder: 1035740 (antibody, V domains shown) VH: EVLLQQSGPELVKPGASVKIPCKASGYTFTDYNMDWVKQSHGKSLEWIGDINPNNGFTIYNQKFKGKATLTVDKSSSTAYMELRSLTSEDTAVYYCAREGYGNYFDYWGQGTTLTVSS VL: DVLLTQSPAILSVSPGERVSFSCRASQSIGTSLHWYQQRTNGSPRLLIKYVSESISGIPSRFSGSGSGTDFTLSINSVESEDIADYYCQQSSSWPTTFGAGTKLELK
value.unit: %
percent blocking: 95
